target_entity: Androgen Receptor (Homo sapiens)
Construct: endogenous in cells; host or cells: VCaP cells
assay_remarks: Androgen Receptor ELISA assay (PathScan AR ELISA) in VCaP cells: AR degradation, Dmax and DC50
Assay type: cell-based
condition_description: VCaP, read-out: VCaP Dmax (%)
Quick reference for Dmax among some compounds

Cc1ncsc1-c1ccc(CNC(=O)[C@@H]2C[C@@H](O)CN2C(=O)[C@@H](NC(=O)COCCCOCCCCOc2ccc(N3C(=S)N(c4ccc(C#N)c(Cl)c4)C(=O)C3(C)C)cc2)C(C)(C)C)cc1 [Example 31]    > 71%

Switching to the query record.
Quick note, Dmax for COc1cc(OCCCCOCC(=O)N[C@H](C(=O)N2C[C@H](O)C[C@H]2C(=O)NCc2ccc(-c3scnc3C)cc2)C(C)(C)C)ccc1-c1ccc(N2C(=S)N(c3ccc(C#N)c(C(F)(F)F)c3)C(=O)C2(C)C)cc1 [Example 140] landed at > 71%

###

target_entity: Androgen Receptor (Homo sapiens)
Construct: endogenous in cells; host or cells: VCaP cells
assay_remarks: Androgen Receptor ELISA assay (PathScan AR ELISA) in VCaP cells: AR degradation, Dmax and DC50
Assay type: cell-based
condition_description: VCaP cells; Table 36; read-out: VCaP DC50
value_type: DC50

Look over these answered cases.
Cc1ncsc1-c1ccc([C@H](C)NC(=O)[C@@H]2C[C@@H](O)CN2C(=O)[C@@H](NC(=O)COCCN2CCN(c3ccc(C(=O)N[C@H]4C(C)(C)[C@H](Oc5ccc(C#N)c(C(F)(F)F)c5)C4(C)C)nn3)CC2)C(C)(C)C)cc1    < 50 nM
Cc1ncsc1-c1ccc([C@H](C)NC(=O)C2C[C@@H](O)CN2C(=O)C(NC(=O)CN2CCN(CCCCc3ccc(C(=O)N[C@H]4C(C)(C)[C@H](Oc5ccc(C#N)c(C(F)(F)F)c5)C4(C)C)cc3)CC2)C(C)(C)C)cc1 (stereo partly shown)    < 50 nM
Cc1ncsc1-c1ccc(CNC(=O)[C@@H]2C[C@@H](O)CN2C(=O)[C@@H](NC(=O)CN2CCN(CCCc3cn(-c4ccc(C(=O)N[C@H]5C(C)(C)[C@H](Oc6ccc(C#N)c(C(F)(F)F)c6)C5(C)C)cc4)nn3)CC2)C(C)(C)C)cc1    < 50 nM

Switching to the query record.
Quick note, DC50 for Cc1ncsc1-c1ccc([C@H](C)NC(=O)[C@@H]2C[C@@H](O)CN2C(=O)[C@@H](NC(=O)COCCN(C)CCCc2ccc(C(=O)N[C@H]3C(C)(C)[C@H](Oc4ccc(C#N)c(Cl)c4)C3(C)C)nc2)C(C)(C)C)cc1 landed at > 501 nM

###

Quick reference for Dmax among some compounds
target_entity: Androgen Receptor (Homo sapiens, UniProt P10275)
Construct: endogenous in cells; host or cells: VCaP cells
Sequence (P10275 1-920): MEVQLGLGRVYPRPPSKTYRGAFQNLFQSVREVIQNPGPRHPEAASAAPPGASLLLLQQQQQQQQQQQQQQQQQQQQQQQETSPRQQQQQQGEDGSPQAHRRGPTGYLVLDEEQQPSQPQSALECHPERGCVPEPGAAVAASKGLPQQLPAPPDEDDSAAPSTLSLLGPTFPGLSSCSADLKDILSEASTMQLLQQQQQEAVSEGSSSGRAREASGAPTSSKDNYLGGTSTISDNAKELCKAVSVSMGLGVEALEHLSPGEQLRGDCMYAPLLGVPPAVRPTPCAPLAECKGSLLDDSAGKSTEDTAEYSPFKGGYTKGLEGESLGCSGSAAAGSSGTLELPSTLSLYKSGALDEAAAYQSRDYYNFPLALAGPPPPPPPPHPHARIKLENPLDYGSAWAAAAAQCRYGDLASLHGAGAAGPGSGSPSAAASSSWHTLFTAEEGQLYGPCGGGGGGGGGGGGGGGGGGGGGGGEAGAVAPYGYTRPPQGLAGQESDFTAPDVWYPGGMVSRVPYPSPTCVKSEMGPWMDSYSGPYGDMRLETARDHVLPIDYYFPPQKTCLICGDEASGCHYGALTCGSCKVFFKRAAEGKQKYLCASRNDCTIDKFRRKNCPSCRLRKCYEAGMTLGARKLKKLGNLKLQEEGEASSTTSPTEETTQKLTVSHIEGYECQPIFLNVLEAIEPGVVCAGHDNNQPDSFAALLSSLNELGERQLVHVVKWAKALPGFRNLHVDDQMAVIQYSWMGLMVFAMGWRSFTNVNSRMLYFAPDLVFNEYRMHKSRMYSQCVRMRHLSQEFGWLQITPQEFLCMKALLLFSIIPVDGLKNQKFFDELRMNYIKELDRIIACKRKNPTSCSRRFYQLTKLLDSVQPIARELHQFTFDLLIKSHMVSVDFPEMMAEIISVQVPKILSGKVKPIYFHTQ
assay_remarks: Androgen Receptor ELISA assay (PathScan AR ELISA) in VCaP cells: AR degradation, Dmax and DC50
Assay type: cell-based
condition_description: VCaP, read-out: VCaP Dmax (%)

Look over these answered cases.
Cc1ncsc1-c1ccc(CNC(=O)[C@@H]2C[C@@H](O)CN2C(=O)[C@@H](NC(=O)COc2ccc(OCC#Cc3ccc(N4C(=S)N(c5ccc(C#N)c(C(F)(F)F)c5)C(=O)C4(C)C)cc3)cc2)C(C)(C)C)cc1    51 to 70%
Cc1ncoc1-c1ccc(CNC(=O)[C@@H]2C[C@@H](O)CN2C(=O)[C@@H](NC(=O)COCCCCOc2ccc(-c3ccc(N4C(=S)N(c5ccc(C#N)c(Cl)c5)C(=O)C4(C)C)c(F)c3)cc2)C(C)(C)C)cc1    > 71%
CC(C)(C)[C@H](NC(=O)COCCCOCCCCCOc1ccc(N2C(=S)N(c3ccc(C#N)c(Cl)c3)C(=O)C2(C)C)cc1)C(=O)N1C[C@H](O)C[C@H]1C(=O)NCc1ccc(-c2cnco2)cc1    51 to 70%
Cc1ncsc1-c1ccc(CNC(=O)[C@@H]2C[C@@H](O)CN2C(=O)[C@@H](NC(=O)COCCCCCNC(=O)CCCc2ccc(N3C(=S)N(c4ccc(C#N)c(C(F)(F)F)c4)C(=O)C3(C)C)cc2)C(C)(C)C)cc1    26 to 50%
Cc1ncsc1-c1ccc(CNC(=O)C2C[C@@H](O)CN2C(=O)[C@@H](NC(=O)CN(C)c2ccc(OCCOc3ccc(N4C(=S)N(c5ccc(C#N)c(C(F)(F)F)c5)C(=O)C4(C)C)cc3)cc2)C(C)(C)C)cc1 (some centres unmarked)    51 to 70%
Cc1ncsc1-c1ccc([C@H](C)NC(=O)[C@@H]2C[C@@H](O)CN2C(=O)[C@@H](NC(=O)CN2CCO[C@H](COCCCCCOc3ccc(N4C(=S)N(c5ccc(C#N)c(C(F)(F)F)c5)C(=O)C4(C)C)cc3)C2)C(C)(C)C)cc1    26 to 50%
Cc1ncsc1-c1ccc([C@H](C)NC(=O)[C@@H]2C[C@@H](O)CN2C(=O)[C@H](C(C)C)n2cc(OCCCOCCCn3cnc(-c4ccc(N5C(=S)N(c6ccc(C#N)c(C(F)(F)F)c6)C(=O)C5(C)C)cc4)c3)cn2)cc1    < 25%
CC(C)(C)[C@H](NC(=O)COCCCOCCCCOc1ccc(N2C(=S)N(c3ccc(C#N)c(C(F)(F)F)c3)C(=O)C2(C)C)cc1)C(=O)N1C[C@H](O)C[C@H]1C(=O)NCc1ccc(-c2cnco2)c(F)c1    51 to 70%

Quick note, Dmax for CC(C)(C)[C@H](NC(=O)COCCCCOc1ccc(-c2ccc(N3C(=S)N(c4ccc(C#N)c(Cl)c4)C(=O)C3(C)C)c(F)c2)cc1)C(=O)N1C[C@H](O)C[C@H]1C(=O)NCc1ccc(-c2cnco2)cc1 landed at > 71%

Quick note, Dmax for CC(C)(C)[C@H](NC(=O)COCCCCOc1ccc(-c2ccc(N3C(=S)N(c4ccc(C#N)c(Cl)c4)C(=O)C3(C)C)cc2)c(F)c1)C(=O)N1C[C@H](O)C[C@H]1C(=O)NCc1ccc(-c2cnco2)cc1 landed at > 71%

Quick note, Dmax for Cc1ncsc1-c1ccc([C@H](C)NC(=O)[C@@H]2C[C@@H](O)CN2C(=O)[C@@H](NC(=O)COC[C@@H](O)[C@H](O)COc2ccc(-c3ccc(N4C(=S)N(c5ccc(C#N)c(C(F)(F)F)c5)C(=O)C4(C)C)cc3)cc2)C(C)(C)C)cc1 landed at > 71%

Quick note, Dmax for Cc1ncsc1-c1ccc(CNC(=O)[C@@H]2C[C@@H](O)CN2C(=O)[C@@H](NC(=O)COCCCOCCCCOc2ccc(N3C(=S)N(c4ccc(C#N)c(C(F)(F)F)c4)C(=O)C34CCN(C)CC4)cc2)C(C)(C)C)cc1 landed at 26 to 50%

Quick note, Dmax for CC(C)(C)[C@H](NC(=O)COCCCCOc1ccc(-c2ccc(N3C(=S)N(c4ccc(C#N)c(Cl)c4)C(=O)C34CCC4)cc2)cc1)C(=O)N1C[C@H](O)C[C@H]1C(=O)NCc1ccc(-c2cnco2)cc1 landed at 51 to 70%

Quick note, Dmax for Cc1ncsc1-c1ccc([C@H](C)NC(=O)[C@@H]2C[C@@H](O)CN2C(=O)[C@@H](NC(=O)COC[C@H](O)[C@@H](O)COc2ccc(-c3ccc(N4C(=S)N(c5ccc(C#N)c(C(F)(F)F)c5)C(=O)C4(C)C)cc3)cc2)C(C)(C)C)cc1 landed at > 71%

Quick note, Dmax for CC(C)(C)[C@H](NC(=O)COCCCOCCCCOc1ccc(N2C(=S)N(c3ccc(C#N)c(C(F)(F)F)c3)C(=O)C2(C)C)cc1)C(=O)N1C[C@H](O)C[C@H]1C(=O)NCc1ccc(-c2ocnc2F)cc1 landed at 26 to 50%

Quick note, Dmax for Cc1ncsc1-c1ccc(CNC(=O)[C@@H]2C[C@H](O)CN2C(=O)[C@@H](NC(=O)COCCCOCCCCCOc2ccc(N3C(=S)N(c4ccc(C#N)c(C(F)(F)F)c4)C(=O)C3(C)C)cc2)C(C)(C)C)cc1 landed at 26 to 50%

Quick note, Dmax for Cc1ncsc1-c1ccc(CNC(=O)[C@@H]2C[C@@H](O)CN2C(=O)[C@@H](NC(=O)COCCCCCOc2ccc(-c3ccc(N4C(=S)N(c5ccc(C#N)c(C(F)(F)F)c5)C(=O)C4(C)C)cc3)cc2)C(C)(C)C)cc1 landed at 51 to 70%
